# tested system: T1, cynomolgous monkey CD25 (cynomolgous monkey)
# T1 construct: also called cmCD25; cm
# protocol details: SPR (BIAcore), cynomolgous CD25
value type: pKd
Answer as the number alone; pKd is minus log10 of concentration in mol/L.

Variant C51 (antibody, V domains shown) VH: QVQLVQSGAEVKKPGSSVKVSCKASGYTFTSYRMHWVRQAPGQGLEWMGYIKPNKGYTEYNQKFKDKATITADESTNTAYMELSSLRSEDTAVYYCARGGGVFDYWGQGTLVTVSS VL: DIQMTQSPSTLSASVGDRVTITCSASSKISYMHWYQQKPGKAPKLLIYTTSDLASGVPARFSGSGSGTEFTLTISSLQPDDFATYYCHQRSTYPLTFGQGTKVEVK | 10.03

Q: Supply recorded pKd for Variant C54 (antibody, V domains shown) VH: QVQLVQSGAEVKKPGSSVKVSCKASGYTFTSYRMHWVRQAPGQGLEWMGYISPRSGRTEYNQKFKDKATITADESTNTAYMELSSLRSEDTAVYYCARGGGVFDYWGQGTLVTVSS VL: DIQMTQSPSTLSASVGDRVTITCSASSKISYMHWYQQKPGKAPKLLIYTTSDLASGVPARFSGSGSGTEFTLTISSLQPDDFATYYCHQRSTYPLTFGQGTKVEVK here.
A: 10.26

Q: Give recorded pKd. Variant C46 (antibody, V domains shown) VH: QVQLVQSGAEVKKPGSSVKVSCKASGYTFTSYRMHWVRQAPGQGLEWMGYIKPKSGYTEYNQKFKDKATITADESTNTAYMELSSLRSEDTAVYYCARGGGVFDYWGQGTLVTVSS VL: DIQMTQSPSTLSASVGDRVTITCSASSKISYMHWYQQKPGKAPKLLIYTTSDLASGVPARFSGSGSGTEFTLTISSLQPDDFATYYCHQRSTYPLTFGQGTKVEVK
A: 10.96

Q: Please supply the value of reported pKd for the item Variant C63 (antibody, V domains shown) VH: QVQLVQSGAEVKKPGSSVKVSCKASGYTFTSYRMHWVRQAPGQGLEWMGYIKPNSGRTEYNQKFKDKATITADESTNTAYMELSSLRSEDTAVYYCARGGGVFDYWGQGTLVTVSS VL: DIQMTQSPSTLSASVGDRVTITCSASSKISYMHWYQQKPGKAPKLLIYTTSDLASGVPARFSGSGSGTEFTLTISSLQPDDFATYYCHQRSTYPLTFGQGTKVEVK
A: 10.20

Q: Annotate the binder Variant C57 (antibody, V domains shown) VH: QVQLVQSGAEVKKPGSSVKVSCKASGYTFTSYRMHWVRQAPGQGLEWMGYIKPKSGRTEYNQKFKDKATITADESTNTAYMELSSLRSEDTAVYYCARGGGVFDYWGQGTLVTVSS VL: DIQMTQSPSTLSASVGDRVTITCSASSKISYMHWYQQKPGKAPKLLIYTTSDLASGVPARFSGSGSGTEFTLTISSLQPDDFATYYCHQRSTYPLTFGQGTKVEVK with its measured pKd.
A: 10.11

This collection of values is drawn from patent US20200308290A1.
